Biological target: UniProtKB Q9UBX1
Sequence (Q9UBX1 271-484): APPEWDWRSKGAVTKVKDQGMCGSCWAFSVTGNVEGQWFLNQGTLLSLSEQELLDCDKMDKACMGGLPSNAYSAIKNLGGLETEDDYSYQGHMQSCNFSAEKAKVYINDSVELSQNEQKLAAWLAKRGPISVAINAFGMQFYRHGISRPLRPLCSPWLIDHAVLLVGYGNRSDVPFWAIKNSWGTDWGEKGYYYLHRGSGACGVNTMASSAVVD
Assay: Cathepsin F assay (hCat F)
Type: biochemical
Details: Z-Phe-Arg-AMC substrate, pH 5.5, 15 min preincubation; read-out: hCat F (IP (nM))
Procedure: Cathepsin F assay (hCat F) Serial dilutions (1/3) from 500 μM down to 0.025 μM of test compounds were prepared in dimethyl sulfoxide (DMSO). Then 0.5 μL of DMSO from each dilution were added to 18.75 μL of assay buffer (MES, 50 mM (pH 5.5); EDTA, 2.5 mM; DTT, 2.5 mM and 10% DMSO) containing human cathepsin F (10 nM) in assay buffer solution. […] Percent of inhibition were calculated by fitting experimental values to standard mathematical model for dose response curve.
Measured Parameter: IC50 (nM)

CC(C)[C@@H](C#N)NC(=O)[C@@H]1C[C@@H](F)CC[C@H]1c1nc(-c2cncc(F)c2)sc1-c1ccc(N2CCS(=O)(=O)CC2)cc1: 1000

a: C[C@@H](C#N)NC(=O)[C@@H]1C[C@@H](F)CC[C@H]1c1nc(-c2ccc(F)cn2)sc1-c1ccc(N2CCS(=O)(=O)CC2)cc1 [Example 130]
b: N#CC1(NC(=O)[C@@H]2CC3CC3C[C@H]2c2nc(-c3ccc(F)cn3)sc2-c2ccc(N3CCS(=O)(=O)CC3)cc2)CC1 (single isomer, unassigned) [Example 105]
Incoming: Which numeric IC50 is bigger, that of a or that of b ? Your answer should be the label of the entry you select.
Outgoing: a

P: N#CC1(NC(=O)[C@@H]2CCCC[C@H]2c2nc(-c3ccc(F)cc3)sc2-c2ccc(C(=O)N3CCC(O)CC3)cc2)CC1
Q: Cc1nc([C@@H]2CC[C@H](F)C[C@H]2C(=O)N[C@@H](C)C#N)c(-c2ccc(N3CCC(S(C)(=O)=O)CC3)cc2)s1
R: N#Cc1ccc(-c2nc([C@@H]3CCCC[C@H]3C(=O)NC3(C#N)CC3)c(-c3ccc(N4CCS(=O)(=O)CC4)cc3)s2)cc1
Incoming: Ascending by IC50, please. The response must list the labels following the requested ordering.
Outgoing: P, R, Q
(P: 868 nM, R: 1410 nM, Q: 7740 nM)

A: N#CC1(NC(=O)[C@@H]2CCCC[C@H]2c2nc(C3CCCOC3)sc2-c2ccc(N3CCS(=O)(=O)CC3)cc2)CC1 (stereo partly drawn)
B: N#CN=S1(=O)CCN(c2ccc(-c3sc(-c4ccc(F)cc4)nc3[C@@H]3CCCC[C@H]3C(=O)NC3(C#N)CC3)cc2)CC1
C: N#CC1(NC(=O)[C@@H]2C[C@@H](F)CC[C@H]2c2nc(-c3cccnc3)sc2-c2ccc(N3CCS(=O)(=O)CC3)cc2)CC1
D: N#CC(CC(F)(F)F)NC(=O)[C@@H]1CCCC[C@H]1c1nc(-c2ccc(F)cn2)sc1-c1ccc(N2CCS(=O)(=O)CC2)cc1 (single isomer, unassigned) [Example 193]
Incoming: Ascending by IC50, please. The response must list the labels following the requested ordering.
Outgoing: D, A, C, B
(D: 21 nM, A: 1000 nM, C: 1980 nM, B: 3330 nM)

I: CN(c1nc([C@@H]2CCCC[C@H]2C(=O)NC2(C#N)CC2)c(-c2ccc(N3CCS(=O)(=O)CC3)cc2)s1)S(=O)(=O)c1ccccc1
II: CN=S1(=O)CCN(c2ccc(-c3sc(-c4ccc(F)cn4)nc3[C@@H]3CCCC[C@H]3C(=O)NC3(C#N)CC3)cc2)CC1
III: Cc1cc(C#N)ccc1-c1nc([C@@H]2CCCC[C@H]2C(=O)NC2(C#N)CC2)c(-c2ccc(N3CCS(=O)(=O)CC3)cc2)s1
Incoming: Order field: IC50 | Direction: descending (largest first) The response must list the labels following the requested ordering.
Outgoing: II, III, I

I: Cc1nc([C@@H]2CCCC[C@H]2C(=O)NCC#N)c(-c2ccc(N3CCS(=O)(=O)CC3)cc2)s1
II: N#CC1(NC(=O)[C@@H]2CCCC[C@H]2c2nc(-c3cccc(C(F)(F)F)n3)sc2-c2ccc(N3CCS(=O)(=O)CC3)cc2)CC1
Incoming: Which numeric IC50 is bigger, that of I or that of II ? Your answer should be the label of the entry you select.
Outgoing: II
(II: 2340 nM, I: 1140 nM)

====

target: UniProt:Q9UBX1; assay: Cathepsin F assay (hCat F); type: biochemical; details: Z-Phe-Arg-AMC substrate, pH 5.5, 15 min preincubation; read-out: hCat F (IP (nM))
Measured Parameter: IC50 (nM)

N#CC1(NC(=O)[C@@H]2CCCC[C@H]2c2nc(Nc3ccc(F)cc3)sc2-c2ccc(N3CCS(=O)(=O)CC3)cc2)CC1: 1000

P: N#CC1(NC(=O)[C@@H]2CCC(F)(F)C[C@H]2c2nc(-c3cncc(Cl)c3)sc2-c2ccc(N3CCS(=O)(=O)CC3)cc2)CC1
Q: N#CC1(NC(=O)[C@@H]2CC3CC3C[C@H]2c2nc(-c3cncc(F)c3)sc2-c2ccc(N3CCS(=O)(=O)CC3)cc2)CC1 (single isomer, unassigned) [Example 111]
Incoming: # compare IC50 for P vs Q ; return the one with the smaller value Your answer should be the label of the entry you select.
Outgoing: Q

====

biological target: human cathepsin F (Homo sapiens, UniProt Q9UBX1); experiment: Cathepsin F assay (hCat F); assay type: biochemical; settings: Z-Phe-Arg-AMC substrate, pH 5.5, 15 min preincubation; read-out: hCat F (IP (nM))
Measured Parameter: IC50 (nM)

I: N#CC1(NC(=O)[C@@H]2CCCC[C@H]2c2nc(-c3ccccc3F)sc2-c2ccc(N3CCS(=O)(=O)CC3)cc2)CC1
II: N#CC1(NC(=O)[C@@H]2CCCC[C@H]2c2nc(-c3ccc(C(F)(F)F)nc3)sc2-c2ccc(N3CCS(=O)(=O)CC3)cc2)CC1
Incoming: Which numeric IC50 is bigger, that of I or that of II ? Your answer should be the label of the entry you select.
Outgoing: II
(II: 2060 nM, I: 1120 nM)

I: N#CC1(NC(=O)[C@@H]2CCCC[C@H]2c2nc(-c3ccc(F)c(C4CCOCC4)c3)sc2-c2ccc(N3CCS(=O)(=O)CC3)cc2)CC1
II: C[C@@H](C#N)NC(=O)[C@@H]1C[C@@H](F)CC[C@H]1c1nc(C2CC(F)(F)C2)sc1-c1ccc(N2CCS(=O)(=O)CC2)cc1
III: N#CC1(NC(=O)[C@@H]2CC3CC3C[C@H]2c2nc(-c3cncc(F)c3)sc2-c2ccc(N3CCS(=O)(=O)CC3)cc2)CC1 (single isomer, unassigned) [Compound 4]
IV: N#CC1(NC(=O)[C@@H]2CC3CC3C[C@H]2c2nc(-c3cncc(Cl)c3)sc2-c2ccc(N3CCS(=O)(=O)CC3)cc2)CC1 (single isomer, unassigned) [Example 109]
V: N#CC1(NC(=O)[C@@H]2CC(F)(F)CC[C@H]2c2nc(-c3ccc(F)cc3)sc2-c2ccc(C(=O)N3CCNC(=O)C3)cc2)CC1
Incoming: Order field: IC50 | Direction: descending (largest first) The response must list the labels following the requested ordering.
Outgoing: II, I, III, IV, V

P: N#CCNC(=O)C1CCCCC1c1nc(-c2ccccc2)sc1-c1ccc(N2CCS(=O)(=O)CC2)cc1 (racemic)
Q: N#CC1(NC(=O)[C@@H]2CC3CC3C[C@H]2c2nc(-c3cncc(F)c3)sc2-c2ccc(N3CCS(=O)(=O)CC3)cc2)CC1 (single isomer, unassigned) [Example 112]
Incoming: Which numeric IC50 is bigger, that of P or that of Q ? Your answer should be the label of the entry you select.
Outgoing: Q

====

target: human cathepsin K (UniProt P43236); test: Cathepsin K Assay (hrbCat K); type: biochemical; settings: Z-Leu-Arg-AMC substrate, pH 5.5, 15 min preincubation; read-out: hrbCat K (IP (nM))
Measured Parameter: IC50 (nM)

N#CC1(NC(=O)[C@@H]2CCCC[C@H]2c2nc(-c3ccc(F)cc3)sc2-c2ccc(N3CCS(=O)(=O)CC3)cc2)CC1 [Example 27]: 0.6

1: N#CC1(NC(=O)[C@@H]2CCCC[C@H]2c2nc(Nc3ccc(F)cc3)sc2-c2ccc(N3CCS(=O)(=O)CC3)cc2)CC1 [Example 180]
2: N#CC1(NC(=O)[C@@H]2CC(F)(F)CC[C@H]2c2nc(-c3ccc(F)cc3)oc2-c2ccc(N3CCS(=O)(=O)CC3)cc2)CC1 [Example 165]
3: N#CC1(NC(=O)[C@@H]2CCC(F)(F)C[C@H]2c2nc(-c3cncc(Cl)c3)sc2-c2ccc(N3CCS(=O)(=O)CC3)cc2)CC1 [Example 115]
Incoming: Ascending by IC50, please. The response must list the labels following the requested ordering.
Outgoing: 2, 3, 1
(2: 0.6 nM, 3: 2.2 nM, 1: 43.3 nM)

1: N#CC1(NC(=O)[C@@H]2CCC(F)(F)C[C@H]2c2nc(-c3cncc(F)c3)sc2-c2ccc(N3CCS(=O)(=O)CC3)cc2)CC1 [Example 218]
2: Cn1cccc(-c2nc([C@@H]3CCCC[C@H]3C(=O)NC3(C#N)CC3)c(-c3ccc(N4CCS(=O)(=O)CC4)cc3)s2)c1=O [Example 50]
Incoming: # compare IC50 for 1 vs 2 ; return the one with the smaller value Your answer should be the label of the entry you select.
Outgoing: 2

1: N#CC1(NC(=O)[C@@H]2CCCC[C@H]2c2nc(-c3ccc(C(F)(F)F)nc3)sc2-c2ccc(N3CCS(=O)(=O)CC3)cc2)CC1 [Example 38]
2: N#CC1(NC(=O)[C@@H]2CC(F)(F)CC[C@H]2c2nc(CCC(F)(F)F)sc2-c2ccc(N3CCS(=O)(=O)CC3)cc2)CC1 [Example 23]
3: CS(=O)(=O)c1ccc(-c2sc(-c3cccnc3)nc2[C@@H]2CCCC[C@H]2C(=O)NC2(C#N)CC2)cc1 [Example 131]
Incoming: Ascending by IC50, please. The response must list the labels following the requested ordering.
Outgoing: 2, 1, 3
